# System: THRa homodimer (NR concentration 90 nM)
# Test Details: PBM binding z-score (relative to random genomic background probes); higher = stronger binding; sequences stand for … in GC…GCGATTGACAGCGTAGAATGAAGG
A collection of sequences and their measured PBM binding z-score
Respond using a number only.

Input line: Look up PBM binding z-score of TCTCGGAGGTCACGAAGGTCAGAGCTTTCCAGAG and report it.
Output line: 2.29

Input line: Look up PBM binding z-score of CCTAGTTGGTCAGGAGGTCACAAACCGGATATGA and report it.
Output line: 2.01

Input line: Look up PBM binding z-score of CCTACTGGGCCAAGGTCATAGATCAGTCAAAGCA and report it.
Output line: 2.25

Input line: Look up PBM binding z-score of TCGAGTAGGTTACGCGGGCATTCAGGGATGAAGA and report it.
Output line: -0.444

----------
# Test system: RARg homodimer (NR concentration 270 nM)
# Test Details: PBM binding z-score (relative to random genomic background probes); higher = stronger binding; sequences stand for … in GC…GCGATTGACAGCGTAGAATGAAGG
A collection of sequences and their measured PBM binding z-score

[
  {
    "Sequence Entry": "TCGAGTAGGTTACGGGGGCATACAGGGATGAAGA",
    "PBM binding z-score": 2.84
  },
  {
    "Sequence Entry": "CGTCTAAGGTCAAAGGTCAGTGAAGAGATGACGG",
    "PBM binding z-score": 8.65
  },
  {
    "Sequence Entry": "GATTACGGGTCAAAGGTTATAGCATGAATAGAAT",
    "PBM binding z-score": 4.85
  },
  {
    "Sequence Entry": "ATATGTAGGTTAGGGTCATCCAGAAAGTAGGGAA",
    "PBM binding z-score": 3.5
  },
  {
    "Sequence Entry": "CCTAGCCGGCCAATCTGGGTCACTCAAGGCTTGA",
    "PBM binding z-score": 1.24
  }
]

Next sequence, PBM binding z-score to be filled in.
Input line: Recall the reported PBM binding z-score of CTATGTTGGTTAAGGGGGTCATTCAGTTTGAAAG when tested on RARg homodimer (NR concentration 270 nM).
Output line: 3.46

----------
# System: RARg homodimer (NR concentration 270 nM)
# Test Details: PBM binding z-score (relative to random genomic background probes); higher = stronger binding; sequences stand for … in GC…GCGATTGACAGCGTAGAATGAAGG
Readout Label: PBM binding z-score
Respond using a number only.

Example entries begin here.
[
  {
    "Sequence Entry": "GCTGCTAGGTCAACTGATGGTCAGCTAGAGCTCG",
    "PBM binding z-score": 5.53
  },
  {
    "Sequence Entry": "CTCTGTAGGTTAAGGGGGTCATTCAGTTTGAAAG",
    "PBM binding z-score": 4.07
  },
  {
    "Sequence Entry": "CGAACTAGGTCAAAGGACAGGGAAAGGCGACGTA",
    "PBM binding z-score": 4.68
  },
  {
    "Sequence Entry": "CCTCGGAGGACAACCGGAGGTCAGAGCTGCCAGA",
    "PBM binding z-score": 3.47
  },
  {
    "Sequence Entry": "CATACAGGGTCCGCTAGGCCAGAGTAGGGACGGC",
    "PBM binding z-score": 0.424
  }
]

Next sequence, PBM binding z-score to be filled in.
Input line: Look up PBM binding z-score of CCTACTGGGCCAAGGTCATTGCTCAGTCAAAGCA and report it.
Output line: 2.97

----------
# System: RARa homodimer (NR concentration 270 nM)
# Test Details: PBM binding z-score (relative to random genomic background probes); higher = stronger binding; sequences stand for … in GC…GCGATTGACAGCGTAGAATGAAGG
A collection of sequences and their measured PBM binding z-score
Respond using a number only.

[
  {
    "Sequence Entry": "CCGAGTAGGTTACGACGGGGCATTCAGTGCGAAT",
    "PBM binding z-score": -0.209
  }
]

Input line: Look up PBM binding z-score of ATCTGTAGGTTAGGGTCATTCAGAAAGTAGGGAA and report it.
Output line: 2.2

Input line: Look up PBM binding z-score of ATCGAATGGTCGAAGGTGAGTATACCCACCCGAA and report it.
Output line: 0.141

Input line: Look up PBM binding z-score of TCTAGCTGGTCACGGAGGTCACACACGACGGGTA and report it.
Output line: 1.08

Input line: Look up PBM binding z-score of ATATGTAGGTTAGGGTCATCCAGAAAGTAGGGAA and report it.
Output line: 2.64

Input line: Look up PBM binding z-score of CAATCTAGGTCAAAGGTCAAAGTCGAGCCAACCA and report it.
Output line: 1.8

----------
# Test system: LXRb:RXRa (NR concentration 270 nM, RXRa partner concentration 90 nM)
# Test Details: PBM binding z-score (relative to random genomic background probes); higher = stronger binding; sequences stand for … in GC…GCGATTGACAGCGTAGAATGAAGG
A collection of sequences and their measured PBM binding z-score
Respond using a number only.

Example entries begin here.
[
  {
    "Sequence Entry": "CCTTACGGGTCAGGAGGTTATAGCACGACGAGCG",
    "PBM binding z-score": 2.52
  },
  {
    "Sequence Entry": "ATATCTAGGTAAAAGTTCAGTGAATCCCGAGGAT",
    "PBM binding z-score": 1.15
  }
]

Input line: Look up PBM binding z-score of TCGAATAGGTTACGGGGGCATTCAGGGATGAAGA and report it.
Output line: 5.78

Input line: Look up PBM binding z-score of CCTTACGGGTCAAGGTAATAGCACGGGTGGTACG and report it.
Output line: 2.58

Input line: Look up PBM binding z-score of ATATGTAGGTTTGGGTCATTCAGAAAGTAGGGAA and report it.
Output line: 2.49

Input line: Look up PBM binding z-score of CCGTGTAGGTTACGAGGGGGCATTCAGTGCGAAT and report it.
Output line: 6.73

Input line: Look up PBM binding z-score of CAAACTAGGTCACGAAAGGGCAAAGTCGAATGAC and report it.
Output line: 5.14

----------
A collection of sequences and their measured PBM binding z-score
# System: THRa homodimer (NR concentration 90 nM)
# Test Details: PBM binding z-score (relative to random genomic background probes); higher = stronger binding; sequences stand for … in GC…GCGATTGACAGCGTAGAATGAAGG
Respond using a number only.

Input line: Recall the reported PBM binding z-score of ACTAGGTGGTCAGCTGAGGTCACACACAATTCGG when tested on THRa homodimer (NR concentration 90 nM).
Output line: 5.08

Input line: Recall the reported PBM binding z-score of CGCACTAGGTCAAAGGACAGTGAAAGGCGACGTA when tested on THRa homodimer (NR concentration 90 nM).
Output line: 0.793

Input line: Recall the reported PBM binding z-score of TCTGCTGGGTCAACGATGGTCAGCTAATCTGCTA when tested on THRa homodimer (NR concentration 90 nM).
Output line: -0.44

Input line: Recall the reported PBM binding z-score of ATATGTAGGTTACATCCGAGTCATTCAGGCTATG when tested on THRa homodimer (NR concentration 90 nM).
Output line: 0.511

Input line: Recall the reported PBM binding z-score of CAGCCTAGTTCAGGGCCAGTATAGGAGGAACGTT when tested on THRa homodimer (NR concentration 90 nM).
Output line: -0.234

Input line: Recall the reported PBM binding z-score of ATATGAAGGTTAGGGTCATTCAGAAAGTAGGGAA when tested on THRa homodimer (NR concentration 90 nM).
Output line: 3.15

Input line: Recall the reported PBM binding z-score of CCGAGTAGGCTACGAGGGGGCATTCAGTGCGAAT when tested on THRa homodimer (NR concentration 90 nM).
Output line: -0.405

Input line: Recall the reported PBM binding z-score of CCGAGTAGGTTACGAGGGGGCATTCGGTGCGAAT when tested on THRa homodimer (NR concentration 90 nM).
Output line: 0.298

Input line: Recall the reported PBM binding z-score of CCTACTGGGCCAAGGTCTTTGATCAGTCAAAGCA when tested on THRa homodimer (NR concentration 90 nM).
Output line: -0.301

----------
# Tested on: THRa:RXRa (NR concentration 90 nM, RXRa partner concentration 90 nM)
# Test Details: PBM binding z-score (relative to random genomic background probes); higher = stronger binding; sequences stand for … in GC…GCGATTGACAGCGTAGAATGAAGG
A collection of sequences and their measured PBM binding z-score
Respond using a number only.

Input line: Recall the reported PBM binding z-score of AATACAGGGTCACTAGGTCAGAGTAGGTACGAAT when tested on THRa:RXRa (NR concentration 90 nM, RXRa partner concentration 90 nM).
Output line: 3.92

Input line: Recall the reported PBM binding z-score of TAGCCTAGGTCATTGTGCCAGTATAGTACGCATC when tested on THRa:RXRa (NR concentration 90 nM, RXRa partner concentration 90 nM).
Output line: 2.61

Input line: Recall the reported PBM binding z-score of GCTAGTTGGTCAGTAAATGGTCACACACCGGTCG when tested on THRa:RXRa (NR concentration 90 nM, RXRa partner concentration 90 nM).
Output line: -0.021

Input line: Recall the reported PBM binding z-score of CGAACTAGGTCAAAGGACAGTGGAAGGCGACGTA when tested on THRa:RXRa (NR concentration 90 nM, RXRa partner concentration 90 nM).
Output line: 2.5

Input line: Recall the reported PBM binding z-score of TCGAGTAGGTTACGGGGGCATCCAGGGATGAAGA when tested on THRa:RXRa (NR concentration 90 nM, RXRa partner concentration 90 nM).
Output line: 3.66

Input line: Recall the reported PBM binding z-score of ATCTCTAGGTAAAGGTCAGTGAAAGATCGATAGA when tested on THRa:RXRa (NR concentration 90 nM, RXRa partner concentration 90 nM).
Output line: 2.98

Input line: Recall the reported PBM binding z-score of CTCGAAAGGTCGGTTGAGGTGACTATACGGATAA when tested on THRa:RXRa (NR concentration 90 nM, RXRa partner concentration 90 nM).
Output line: 5.16

Input line: Recall the reported PBM binding z-score of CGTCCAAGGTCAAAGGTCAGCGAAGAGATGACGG when tested on THRa:RXRa (NR concentration 90 nM, RXRa partner concentration 90 nM).
Output line: 5.06

Input line: Recall the reported PBM binding z-score of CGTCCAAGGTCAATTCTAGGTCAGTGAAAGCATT when tested on THRa:RXRa (NR concentration 90 nM, RXRa partner concentration 90 nM).
Output line: 4.64

Input line: Recall the reported PBM binding z-score of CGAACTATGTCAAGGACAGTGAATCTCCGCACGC when tested on THRa:RXRa (NR concentration 90 nM, RXRa partner concentration 90 nM).
Output line: 1.76

Input line: Recall the reported PBM binding z-score of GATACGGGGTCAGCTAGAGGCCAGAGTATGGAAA when tested on THRa:RXRa (NR concentration 90 nM, RXRa partner concentration 90 nM).
Output line: 4.28

Input line: Recall the reported PBM binding z-score of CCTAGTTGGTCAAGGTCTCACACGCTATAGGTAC when tested on THRa:RXRa (NR concentration 90 nM, RXRa partner concentration 90 nM).
Output line: 0.956
